# credit: the NIST ThermoML archive (doi:10.1016/j.jct.2010.06.009)

- METHOD_DESCRIPTION: activity coefficient (dimensionless); of the first substance listed, at infinite dilution; xn = mol fraction of the nth substance listed
- ASSAY_CONDITIONS: 333.2 K; 101 kPa; Liquid; Chromatography; x1 = 0
OBSERVABLE: activity coefficient

>>> result_value("Cc1ccccc1 [toluene] + CC[n+]1ccccc1.O=S(=O)([N-]S(=O)(=O)C(F)(F)F)C(F)(F)F")
2.11
>>> result_value("Cc1ccccc1 [toluene] + CCCC[n+]1ccccc1.O=S(=O)([N-]S(=O)(=O)C(F)(F)F)C(F)(F)F")
1.83
>>> result_value("CCCCCCC [heptane] + CCCC[n+]1ccccc1.O=S(=O)([N-]S(=O)(=O)C(F)(F)F)C(F)(F)F")
13.8
>>> result_value("C1CCCCC1 [cyclohexane] + CCCC[n+]1ccccc1.O=S(=O)([N-]S(=O)(=O)C(F)(F)F)C(F)(F)F")
6.7
>>> result_value("CCc1ccccc1 [ethylbenzene] + CCCC[n+]1ccccc1.O=S(=O)([N-]S(=O)(=O)C(F)(F)F)C(F)(F)F")
2.77
>>> result_value("c1ccccc1 [benzene] + CCCC[n+]1ccccc1.O=S(=O)([N-]S(=O)(=O)C(F)(F)F)C(F)(F)F")
1.35

---

- METHOD_DESCRIPTION: activity coefficient (dimensionless); of the first substance listed, at infinite dilution; xn = mol fraction of the nth substance listed
- ASSAY_CONDITIONS: 333 K; 101 kPa; Liquid; Chromatography; x1 = 0
Checkbox rule: activity coefficient lower than 10 = 1; activity coefficient not lower than 10 = -1.

>>> label("CCCCCCC [heptane] + CC[n+]1ccccc1.O=S(=O)([N-]S(=O)(=O)C(F)(F)F)C(F)(F)F")
-1
>>> label("C#CCCCCCC [1-octyne] + CC[n+]1ccccc1.O=S(=O)([N-]S(=O)(=O)C(F)(F)F)C(F)(F)F")
-1
>>> label("C#CCCCCC [1-heptyne] + CC[n+]1ccccc1.O=S(=O)([N-]S(=O)(=O)C(F)(F)F)C(F)(F)F")
1
>>> label("CCCCCCCC [octane] + CC[n+]1ccccc1.O=S(=O)([N-]S(=O)(=O)C(F)(F)F)C(F)(F)F")
-1
>>> label("C#CCCC [1-pentyne] + CC[n+]1ccccc1.O=S(=O)([N-]S(=O)(=O)C(F)(F)F)C(F)(F)F")
1
>>> label("CCCCCCCCC [nonane] + CC[n+]1ccccc1.O=S(=O)([N-]S(=O)(=O)C(F)(F)F)C(F)(F)F")
-1
>>> label("CCCCC [pentane] + CC[n+]1ccccc1.O=S(=O)([N-]S(=O)(=O)C(F)(F)F)C(F)(F)F")
1
>>> label("CC1CCCCC1 [methylcyclohexane] + CC[n+]1ccccc1.O=S(=O)([N-]S(=O)(=O)C(F)(F)F)C(F)(F)F")
-1

---

- METHOD_DESCRIPTION: activity coefficient (dimensionless); of the first substance listed, at infinite dilution; xn = mol fraction of the nth substance listed
- ASSAY_CONDITIONS: 323.1 K; 101 kPa; Liquid; Chromatography; x1 = 0
Label rule, in plain words: activity coefficient of 9 and up is Met, under 9 is Not met.

>>> label("CCCCCCCCC [nonane] + CC[n+]1ccccc1.O=S(=O)([N-]S(=O)(=O)C(F)(F)F)C(F)(F)F")
"Met"
>>> label("C1CCCCC1 [cyclohexane] + CC[n+]1ccccc1.O=S(=O)([N-]S(=O)(=O)C(F)(F)F)C(F)(F)F")
"Not met"
>>> label("CCCCCC [hexane] + CC[n+]1ccccc1.O=S(=O)([N-]S(=O)(=O)C(F)(F)F)C(F)(F)F")
"Not met"
>>> label("CCO [ethanol] + CCCC[n+]1ccccc1.O=S(=O)([N-]S(=O)(=O)C(F)(F)F)C(F)(F)F")
"Not met"
>>> label("CCCCCCCC [octane] + CC[n+]1ccccc1.O=S(=O)([N-]S(=O)(=O)C(F)(F)F)C(F)(F)F")
"Met"
>>> label("CO [methanol] + CCCC[n+]1ccccc1.O=S(=O)([N-]S(=O)(=O)C(F)(F)F)C(F)(F)F")
"Not met"
>>> label("CC1CCCCC1 [methylcyclohexane] + CC[n+]1ccccc1.O=S(=O)([N-]S(=O)(=O)C(F)(F)F)C(F)(F)F")
"Met"
>>> label("CCCCCCC [heptane] + CC[n+]1ccccc1.O=S(=O)([N-]S(=O)(=O)C(F)(F)F)C(F)(F)F")
"Met"
